# METHOD: Selectivity index, ratio of HC50 for human RBC to MIC for Pseudomonas aeruginosa
PARAMETER: Selectivity Index

Worked examples follow.
{"SUBSTANCE": "H-KIAKGALKALKIAKVALKAL-NH2", "EXPERIMENTAL RESULT": "7 to 15"}
{"SUBSTANCE": "H-KIGKALGKALKALGKALGKA-NH2", "EXPERIMENTAL RESULT": "< 1"}
{"SUBSTANCE": "H-KIAKGALKALKIAKGALKAL-NH2", "EXPERIMENTAL RESULT": "6 to 12"}

Moving on to the next substance.
Data request: Report Selectivity Index, nothing else, for this substance: "H-KIALKALKALKALGKALKAL-NH2"
Data returned: < 1

* * *

# Test system: Escherichia coli
# METHOD: Induction of membrane permeabilization in Escherichia coli ATCC 25922 assessed as massive cell disruption/collapse at MBC after 1 hr by atomic force microscopic method
# Type: functional
Calls of active or inactive are those of the source. The calls are words filed in the database; no cut-off is given here.
PARAMETER: Activity

{"SUBSTANCE": "H-KIAKGALKALKIAKGALKAL-NH2", "STUDY TARGET": "Escherichia coli", "PARAMETER": "Activity", "EXPERIMENTAL RESULT": "Active"}
{"SUBSTANCE": "H-KIGKALGKALKALGKALGKA-NH2", "STUDY TARGET": "Escherichia coli", "PARAMETER": "Activity", "EXPERIMENTAL RESULT": "Active"}
{"SUBSTANCE": "H-KIALKALKALKALGKALKAL-NH2", "STUDY TARGET": "Escherichia coli", "PARAMETER": "Activity", "EXPERIMENTAL RESULT": "Active"}
{"SUBSTANCE": "H-KIAKGALKALKIAKVALKAL-NH2", "STUDY TARGET": "Escherichia coli", "PARAMETER": "Activity", "EXPERIMENTAL RESULT": "Active"}

Data request: Find the measured Activity of "H-KIAGKAGKIAKIAGKAGKIA-NH2" and report it.
Data returned: Active

* * *

# Test system: Acinetobacter baumannii
# METHOD: Bactericidal activity against clinical isolates of Acinetobacter baumannii after 18 hrs by microdilution method
# Format: functional
# STUDY CONDITIONS: read-out: MBC=>99.9
PARAMETER: MBC (µM)
The reply should contain only the number, in µM.

Examples with answers:
{"SUBSTANCE": "H-KIALKALKALKALGKALKAL-NH2", "MBC [µM]": 32}
{"SUBSTANCE": "H-KIGKALGKALKALGKALGKA-NH2", "MBC [µM]": 64}

Shift focus to the following entry.
Data request: Give reported MBC value for "H-KIAKGALKALKIAKVALKAL-NH2"
Data returned: 1

* * *

Items are presented alongside their recorded Selectivity Index.
# METHOD: Selectivity index, ratio of HC50 for human RBC to MIC for Pseudomonas aeruginosa ATCC 27853
Kindly provide the number alone.

{"SUBSTANCE": "H-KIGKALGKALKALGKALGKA-NH2", "EXPERIMENTAL RESULT": 2}

Let's switch to this substance now.
Data request: For "H-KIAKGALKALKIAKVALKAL-NH2" , write its Selectivity Index.
Data returned: 15

* * *

# Tested on: Escherichia coli
# METHOD: Bactericidal activity against Escherichia coli ATCC 25922 after 18 hrs by microdilution method
# Type: functional
# STUDY CONDITIONS: ATCC 25922, 18 h, read-out: MBC=>99.9
PARAMETER: MBC (µM)
Number only, in µM; omit the unit.

{"SUBSTANCE": "H-KIAKGALKALKIAKGALKAL-NH2", "STUDY TARGET": "Escherichia coli", "EXPERIMENTAL RESULT": 16}

Proceeding to the next substance to report its MBC.
Data request: Recall the reported MBC of "H-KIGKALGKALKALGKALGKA-NH2" when tested on Escherichia coli.
Data returned: 16

* * *

# Test system: Escherichia coli
# METHOD: Antibacterial activity against clinical isolates of Escherichia coli after 18 hrs by microdilution method
# Format: functional
Entries and their MIC values follow.
Return type: number; implicit unit µM.

Here's what some known entries look like.
{"SUBSTANCE": "H-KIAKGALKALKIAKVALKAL-NH2", "PARAMETER": "MIC", "VALUE UNIT": "µM", "EXPERIMENTAL RESULT": 4}
{"SUBSTANCE": "H-KIAKGALKALKIAKGALKAL-NH2", "PARAMETER": "MIC", "VALUE UNIT": "µM", "EXPERIMENTAL RESULT": 64}

As a next step, examine the substance that follows.
Data request: Let me know recorded MIC for "H-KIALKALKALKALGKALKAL-NH2" , thanks.
Data returned: 32

* * *

# Tested on: Escherichia coli
# METHOD: Growth inhibition of Escherichia coli ATCC 25922 measured every 10 mins for 4 hrs
# Type: functional
Items are presented alongside their recorded IC50.
Form entry: value (nM) — number only.

{"SUBSTANCE": "H-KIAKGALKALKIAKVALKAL-NH2", "STUDY TARGET": "Escherichia coli", "IC50 [nM]": 350}
{"SUBSTANCE": "H-KIAKGALKALKIAKGALKAL-NH2", "STUDY TARGET": "Escherichia coli", "IC50 [nM]": 300}
{"SUBSTANCE": "H-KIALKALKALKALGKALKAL-NH2", "STUDY TARGET": "Escherichia coli", "IC50 [nM]": 350}

Consider the additional substance presented here.
Data request: Identify the reported IC50 for the following entry. "H-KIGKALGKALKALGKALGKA-NH2"
Data returned: 700

* * *

# Test system: Escherichia coli
# METHOD: Induction of membrane permeabilization in Escherichia coli ATCC 25922 assessed as loss of pili/flagella at MBC after 1 hr by atomic force microscopic method
# Assay type: functional
Active and inactive are the calls of the source. The rule behind the calls is not given here.
PARAMETER: Activity

{"SUBSTANCE": "H-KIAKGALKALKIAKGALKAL-NH2", "STUDY TARGET": "Escherichia coli", "Activity": "Active"}
{"SUBSTANCE": "H-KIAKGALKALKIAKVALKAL-NH2", "STUDY TARGET": "Escherichia coli", "Activity": "Active"}
{"SUBSTANCE": "COLISTIN", "STUDY TARGET": "Escherichia coli", "Activity": "Active"}
{"SUBSTANCE": "H-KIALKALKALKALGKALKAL-NH2", "STUDY TARGET": "Escherichia coli", "Activity": "Active"}

Data request: Lab note: Escherichia coli assay, enter Activity for "H-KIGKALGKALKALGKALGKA-NH2" here
Data returned: Active

Data request: Provide the reported Activity (system: Escherichia coli) for "H-KIAGKAGKIAKIAGKAGKIA-NH2"
Data returned: Active

* * *

Reported values of MBC for individual entries
# Tested on: Klebsiella pneumoniae
# METHOD: Bactericidal activity against clinical isolates of Klebsiella pneumoniae after 18 hrs by microdilution method
# Type: functional
# STUDY CONDITIONS: read-out: MBC=>99.9

Below: 4 substances and their reported MBC.
{"SUBSTANCE": "H-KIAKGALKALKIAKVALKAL-NH2", "EXPERIMENTAL RESULT": "8 µM"}
{"SUBSTANCE": "H-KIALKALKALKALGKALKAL-NH2", "EXPERIMENTAL RESULT": "32 to 64 µM"}
{"SUBSTANCE": "H-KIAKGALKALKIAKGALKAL-NH2", "EXPERIMENTAL RESULT": "16 µM"}
{"SUBSTANCE": "H-KIAGKAGKIAKIAGKAGKIA-NH2", "EXPERIMENTAL RESULT": "> 64 µM"}

Kindly review the next substance as well.
Data request: Tell me MBC of "H-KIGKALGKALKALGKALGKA-NH2" when tested on Klebsiella pneumoniae.
Data returned: 32 µM

* * *

# METHOD: Cytotoxicity against human peripheral blood leukocytes assessed as cell viability at 50 uM after 4 hrs by acridine orange/ethidium bromide staining based fluorescence microscopic method relative to control
# Set-up: species or system Leukocyte
# STUDY CONDITIONS: read-out: Activity
PARAMETER: viability at 4 h, 50 µM (%)
Respond with the bare value in %.

Data request: Write down viability at 4 h, 50 µM measured for item "H-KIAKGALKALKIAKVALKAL-NH2"
Data returned: 92

* * *

# System: Staphylococcus aureus
# METHOD: Growth inhibition of Staphylococcus aureus ATCC 25923 measured every 10 mins for 4 hrs
# Assay type: functional
PARAMETER: pIC50
// field semantics: pIC50 = negative decimal log of concentration (mol/L)

Worked set:
{"SUBSTANCE": "H-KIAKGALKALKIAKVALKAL-NH2", "STUDY TARGET": "Staphylococcus aureus", "pIC50": 6.10}
{"SUBSTANCE": "H-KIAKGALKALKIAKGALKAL-NH2", "STUDY TARGET": "Staphylococcus aureus", "pIC50": 5.80}

# input for lookup
Data request: Find pIC50 for "H-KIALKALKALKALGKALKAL-NH2" on Staphylococcus aureus and write it down.
Data returned: 6.40
